src = a melting point compilation (Tetko et al.)

For each entry below, report its melting point value.

Indicate the recorded melting point value for this compound: O=c1cc(CCl)c2ccc(Br)cc2o1 160 to 162 °C

Indicate the recorded melting point value for this compound: COC(=O)c1ccccc1CC(=O)O 139 to 141 °C

Indicate the recorded melting point value for this compound: O=C(O)[C@@H]1CCCN1C(=O)NCc1cccc(Br)c1 146 to 148 °C

Indicate the recorded melting point value for this compound: O=C1CC2(CCCCC2)CN1 89 to 91 °C

Indicate the recorded melting point value for this compound: NC(CN1CCC(O)CC1)=NO 182 to 184 °C

Indicate the recorded melting point value for this compound: O=C(O)CCOc1ccc(Br)cc1 145 to 147 °C

Indicate the recorded melting point value for this compound: COc1ccc(C2(C(=O)O)CCCCC2)cc1OC 124 to 126 °C

Indicate the recorded melting point value for this compound: O=C(O)c1cc(Cl)ncc1[N+](=O)[O-] 178 to 180 °C

Indicate the recorded melting point value for this compound: CCCOc1ccc2c(c1)OCC(C(=O)O)=C2 178 to 180 °C

Indicate the recorded melting point value for this compound: CC(C)(Cc1ccccc1)NC(=O)OC(C)(C)C 51 to 53 °C

Indicate the recorded melting point value for this compound: NC1c2ccccc2-c2ccccc21 43 to 45 °C
